# experimental_system: Luciferin 4-monooxygenase (Photinus pyralis) (UniProt P08659)
# Sequence (P08659 whole entry, looked up): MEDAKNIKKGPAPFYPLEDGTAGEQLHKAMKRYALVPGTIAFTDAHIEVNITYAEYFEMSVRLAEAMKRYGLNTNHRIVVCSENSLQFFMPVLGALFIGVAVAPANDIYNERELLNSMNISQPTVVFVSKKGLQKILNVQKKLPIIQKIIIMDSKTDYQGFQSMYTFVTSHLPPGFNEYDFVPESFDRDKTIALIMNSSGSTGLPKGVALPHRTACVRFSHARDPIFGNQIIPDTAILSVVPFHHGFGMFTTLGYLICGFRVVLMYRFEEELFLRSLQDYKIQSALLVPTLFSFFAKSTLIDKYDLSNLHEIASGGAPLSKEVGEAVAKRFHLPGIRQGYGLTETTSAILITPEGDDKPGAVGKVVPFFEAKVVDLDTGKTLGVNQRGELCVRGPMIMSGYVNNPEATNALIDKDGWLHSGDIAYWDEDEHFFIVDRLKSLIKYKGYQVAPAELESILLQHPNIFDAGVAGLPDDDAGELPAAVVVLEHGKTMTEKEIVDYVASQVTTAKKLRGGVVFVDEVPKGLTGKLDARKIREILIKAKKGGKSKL
# assay_overview: firefly luciferase enzyme inhibitors, primary screen, artefact control for luciferase-based inhibitor screens, biochemical, luminescence, ATPLite (AID 1006)
# test_context: 10 min, at 10 µM, hits give high values
About 3,000 (1.5%) of roughly 200,000 compounds were called active. The list comes from a sample in which actives are over-represented; it also holds close analogues and randomly drawn compounds.
Exercise: state measured inhibition for each of the compounds provided.
Report the value in % with no unit label.

Lookup: inhibition / Luciferin 4-monooxygenase (Photinus pyralis) (UniProt P08659) / CCC(C)N(C)C1CCN(C(=S)Nc2ccc(OC)cc2)CC1 (stereo not drawn) -0.3

Param item: CCOc1ccc(S(=O)(=O)Nc2nccs2)cc1 -7.4

Param item: COc1ccc(NC(=S)N2N=CCC2c2ccccc2)cc1 (stereo not drawn) 65.3

Param item: CCOC(=O)c1sc(-c2cccc([N+](=O)[O-])c2)cc1N -3.5

Param item: Cc1ccc(S(=O)(=O)N(NC2=NS(=O)(=O)c3ccccc32)C(=O)c2ccccc2)cc1 0.4

Param item: COc1ccc(N2CCN(C(=O)CSc3nc4cc(OC)c(OC)cc4cc3C#N)CC2)cc1 -6.5

Param item: Cc1ccc(NC(=O)c2cccs2)cc1S(=O)(=O)N(C)C 15.2

Param item: CC(C)(C)c1csc(NC2=NS(=O)(=O)c3ccccc32)n1 77.2

Param item: COc1ccc(C(=S)Nc2ccccc2)cc1 8.7

Param item: Cc1ccc(C(=O)Nc2ccc(C)c(S(=O)(=O)N(C)C)c2)s1 71.1

Param item: Cc1ccc(NC(=O)C2(N3CCC3=O)CCCCC2)cc1 -9

Param item: CC(NC(=S)NC1CCCCC1)C(c1ccccc1)N1CCOCC1 (stereo not drawn) -6

Param item: C/C(=N/NC(=O)CSc1ccccn1)c1ccc([N+](=O)[O-])cc1 -6.6

Param item: CCC(=O)N1CCC(C(N)=O)(N2CCCCC2)CC1 -4.7

Param item: COc1ccc(C(=O)NC2CCN(C(=S)Nc3ccccc3)CC2)cc1 -7.5

Param item: C/C(=N/N1CCN(Cc2cccc3ccccc23)CC1)c1cccnc1 -5.7

Param item: CCNC(=O)CC1C(=O)N(c2ccc(F)cc2)C(=O)N1CCc1sccc1C (stereo not drawn) -3.3

Param item: COc1ccc2nc(N3CCCC(O)C3)c(C#N)cc2c1 (stereo not drawn) 54.6

Param item: CCn1c(=S)[nH]c2sc3c(c2c1=O)CCCCC3 -1.8

Param item: Cc1ccc(C)c(Cn2nnc3c(=O)[nH]c(C(=O)Nc4ccc(F)cc4)nc32)c1 -10.1

Param item: O=C(Cc1ccc(Cl)cc1)NCc1nc(-c2ccccc2)no1 -3.2

Param item: Cc1nc2ccc(NC(=S)N3CCC(C)CC3)cc2nc1C -2.6

Param item: Cc1ccc(NC(=O)CNCc2ccccn2)cc1S(=O)(=O)N(C)C -1.9

###

# experimental_system: Luciferin 4-monooxygenase (Photinus pyralis) (UniProt P08659)
# assay_overview: firefly luciferase enzyme inhibitors, primary screen, artefact control for luciferase-based inhibitor screens, biochemical, luminescence, ATPLite (AID 1006)
# test_context: 10 min, at 10 µM
About 3,000 (1.5%) of roughly 200,000 compounds were called active.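 Rule for the calls: active = inhibition above about 50% when tested at 10 µM (limit read from the data); inactive = the rest.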 For the sample, actives were picked, then their nearest neighbours and some compounds at random.
Use one of these outcomes when replying: active, inactive

Which result was noted for this molecule in the test: CCC(C)(NC(=O)c1ccccn1)C(=O)NC1CCCCC1 (centres undefined) inactive

Param item: O=C(O)C1C2CC2CN1C(=O)c1ccc(Cl)cc1Cl (centres undefined) inactive

Param item: COc1cccc(/C=N/NC(=O)c2cccc([N+](=O)[O-])c2)c1OS(=O)(=O)c1ccc(C)cc1 inactive

Param item: c1cc(-c2nn[nH]n2)ccc1CN1CCCCC1 inactive

Param item: O=C(c1cncc(Br)c1)N1CCN(c2ccc([N+](=O)[O-])cc2)CC1 inactive

Param item: O=C1NC(c2ccccc2)CCC1(Cl)Cl (centres undefined) inactive

Param item: CCCOC(=O)c1[nH]c2c(c1C)C(=O)CC(c1cc(OC)c(OC)c(OC)c1)C2 (centres undefined) inactive

Param item: COc1ccc(C(=O)NCC(=O)N/N=C/c2ccc([N+](=O)[O-])s2)cc1OC inactive

Param item: CCOc1ccc2nc(Nc3nc4ccc(NC(C)=O)cc4s3)sc2c1 inactive

Param item: O=C(CC1Nc2ccccc2NC1=O)Nc1ccccc1NC(=O)CC1Nc2ccccc2NC1=O (centres undefined) inactive

Param item: N/C(=N\OC(=O)CC1CCCCC1)c1ccccc1 active

Param item: COc1ccc(-c2csc(Cc3nc(O)cs3)n2)cc1 inactive

Param item: CCOc1ccc2nc(C(=O)N3CCCC(C)C3)sc2c1 (centres undefined) active

Param item: S=C(NCCc1ccccc1)N1CCCCC1 inactive

Param item: S=C(c1ccc(-c2ccccc2)o1)N1CCCCC1 active

Param item: CCOc1ccc2nc(SC(CC)C(=O)Nc3cc(C)on3)sc2c1 (centres undefined) inactive

Param item: N/C(=N\OC(=O)CCc1ccccc1)c1ccc(Cl)cc1 inactive

Param item: Cc1ccsc1C(=O)OCC(=O)c1cc(C)n(CC2CCCO2)c1C (centres undefined) active

Param item: CC(C)c1ccc(-c2nn[nH]n2)cc1 active

Param item: CCO[C@H]1OC(C(=O)O)=C[C@@H](C2CCCCC2)[C@@H]1CCCO inactive

Param item: Cc1cc(C(=O)CCl)c(C)n1CC1COc2ccccc2O1 (centres undefined) inactive

Param item: CC(=O)c1c(-c2ccccc2)c2ccccc2[nH]c1=O inactive

Param item: Cc1noc(NS(=O)(=O)c2ccc(N/C=C/C(=O)c3ccccc3)cc2)c1C inactive

Param item: COc1ccc(NC(=S)N2CCCC(CO)C2)c(OC)c1 (centres undefined) inactive

Origin of measurements: PubChem BioAssay AID1006
